biological target: Hexose transporter 1 (Plasmodium falciparum); assay: ST_JUDE_LEISH: Cytotoxicity at 2uM final concentration against transgenic Leishmania Mexicana promastigotes LmPfHT that are glucose transport deficient and complemented with the Plasmodium falciparum hexose transporter. Activity is measured by DNA content using SYBR green in vitro; assay type: functional
readout.kind: inhibition
Please don't drop the unit; write it after the number.

Known inhibition results, listed for orientation:
INSERT INTO measurements (compound, system_name, reported_value) VALUES
  ('CC(C)C1c2ccc(O)cc2CC2C(=O)N(C3CCCCC3)C(=O)N21 (centres undefined)', 'Hexose transporter 1 (Plasmodium falciparum)', '-1%'),
  ('Cc1cccc(-c2nn(-c3ccccc3)cc2C(=O)Nc2nnc(C)o2)c1', 'Hexose transporter 1 (Plasmodium falciparum)', '-1.47%');

### Prompt Find the recorded inhibition belonging to O=C(/C=C/c1ccc(Cl)c(Cl)c1)NCCCCCN1CCC(CCNC(=O)C2(c3ccc(Cl)cc3)CC2)CC1 and report it.
### Response 6.12%

### Prompt Fill in: inhibition of CN1CCN(CCCN(Cc2csc(-c3ccc(CNCc4ccccc4)cc3)n2)S(=O)(=O)c2ccc(F)cc2)CC1 is ___
### Response 17.1%

### Prompt Please look up its inhibition: Cc1cccc2nc(-c3ccc(-c4cccc(C(=O)N5CCCCC5C(C)O)c4)s3)[nH]c12 (centres undefined)
### Response 2.52%

### Prompt Consider the compound CS(=O)(=O)c1cccc2sc(N3CCN(C(=O)c4ccc([N+](=O)[O-])o4)CC3)nc12 and give its measured inhibition.
### Response 23.7%

### Prompt # input compound: COc1cc(NC(=O)/C=C/c2cccc3ccoc23)ccc1OCCN(C(C)C)C(C)C ; wanted: its inhibition
### Response 3.8%

### Prompt For the compound CN(CCCNCc1cccc2ccccc12)CCCNCc1cccc2ccccc12 , what inhibition is on record?
### Response 0.53%

### Prompt Value lookup for inhibition; key = Cc1cnc(CNCc2ccc(S(=O)(=O)Nc3ccc(Oc4cccc(Cl)c4)cc3)cc2)cn1
### Response 2.83%
